Tested on: Ba/F3 Bcr-Abl^T315I
Assay: Antiproliferation cell assay
Format: cell-based
Conditions: Mus musculus, BaF3, 72 h, read-out: Cellular inhibition IC50 Ba/F3 Bcr-Abl^T315I
For each entry below, report its IC50 value.
Answers are plain numbers, in nM.

Below are worked cases with known answers.
compound: Cc1ccc(C(=O)Nc2ccc(CN3CCN(CCOCCOCCOCCC(=O)Nc4cccc5c4C(=O)N(C4CCC(=O)NC4=O)C5=O)CC3)c(C(F)(F)F)c2)cc1C#Cc1cnc2[nH]ncc2c1 (stereo not drawn) [compound 7h]
IC50 (nM): 83.4

compound: Cc1ccc(C(=O)Nc2ccc(CN3CCN(CCOCCOCCOCCOCCOCCC(=O)Nc4cccc5c4C(=O)N(C4CCC(=O)NC4=O)C5=O)CC3)c(C(F)(F)F)c2)cc1C#Cc1cnc2[nH]ncc2c1 (stereo not drawn) [7j]
IC50 (nM): 60.1

Lab note: next compound to report on.
Lab book: IC50 of Cc1ccc(C(=O)Nc2ccc(CN3CCN(CCCCCCCCCCC(=O)Nc4cccc5c4C(=O)N(C4CCC(=O)NC4=O)C5=O)CC3)c(C(F)(F)F)c2)cc1C#Cc1cnc2[nH]ncc2c1 (stereo not drawn) [7q] noted as 70.1
